# system: histamine H2 receptor (Rattus norvegicus)
# Construct: endogenous in cells
# Sequence (P25102 whole entry): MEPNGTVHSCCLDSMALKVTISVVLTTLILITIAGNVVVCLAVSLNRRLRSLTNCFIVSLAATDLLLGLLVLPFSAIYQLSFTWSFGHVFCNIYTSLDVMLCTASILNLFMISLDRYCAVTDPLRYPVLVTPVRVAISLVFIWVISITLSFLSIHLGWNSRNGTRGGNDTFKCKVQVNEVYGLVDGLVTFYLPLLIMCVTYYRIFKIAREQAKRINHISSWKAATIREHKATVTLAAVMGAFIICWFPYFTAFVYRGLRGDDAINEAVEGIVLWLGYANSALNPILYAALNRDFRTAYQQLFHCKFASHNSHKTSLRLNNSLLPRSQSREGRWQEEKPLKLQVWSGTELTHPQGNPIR
# assay_explanation: Competition binding assay (displacement of ^3H-tiotidine)
test_readout: IC50 (nM)
Your answer is read as nM, so omit the unit and give the number.

Query: # get_value(readout= IC50, system= histamine H2 receptor (Rattus norvegicus)) for Cc1ncc(CCN)[nH]1 [2-methylhistamine]
Reply: 4.17

* * *

# system: histamine H2 receptor (Rattus norvegicus)
# Construct: endogenous in cells
# assay_explanation: ^3H-tiotidine saturation binding assay
# stated_conditions: cultured neonatal rat astrocytes, deuterated medium (D2O); read-out: equilibrium dissociation constant (KD)
test_readout: Kd (nM)
Please give a number only; it is taken to be in nM.

Query: Find the recorded Kd belonging to CN=C(NC#N)NCCSCc1csc(N=C(N)N)n1 [^3H-tiotidine] and report it.
Reply: 7.4

Data credit: paper PMC4861267
